- targetOrTestSystem: humanized development candidate monoclonal antibody IgG4 (hIgG4)
- methodDescription: Gyrolab, mAb as capture, hIgG4 0.32 ng/ml
parameter: Av. Resp.

# binder, Av. Resp.
records = [
    ("rabbit anti-human IgG monoclonal antibody clone 2C5 (antibody, V domains shown) VH: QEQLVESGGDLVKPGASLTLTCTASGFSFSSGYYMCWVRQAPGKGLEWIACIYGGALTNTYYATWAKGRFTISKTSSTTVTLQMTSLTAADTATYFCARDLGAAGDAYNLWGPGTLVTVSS VL: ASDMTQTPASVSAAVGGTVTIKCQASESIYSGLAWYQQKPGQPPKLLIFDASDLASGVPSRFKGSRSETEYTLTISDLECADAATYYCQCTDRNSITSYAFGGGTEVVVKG", 2.1),
]

State the recorded Av. Resp. for every item in the following list.
1. rabbit anti-human IgG monoclonal antibody clone 19B1 (antibody, V domains shown) VH: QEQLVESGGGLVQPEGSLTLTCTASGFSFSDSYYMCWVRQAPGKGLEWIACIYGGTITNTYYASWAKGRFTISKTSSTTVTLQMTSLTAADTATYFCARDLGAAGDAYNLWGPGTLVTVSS VL: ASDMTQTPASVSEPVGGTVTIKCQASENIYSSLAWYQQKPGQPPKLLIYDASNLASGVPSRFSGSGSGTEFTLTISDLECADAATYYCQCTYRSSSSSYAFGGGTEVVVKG
2. rabbit anti-human IgG monoclonal antibody clone 11F9 (antibody, V domains shown) VH: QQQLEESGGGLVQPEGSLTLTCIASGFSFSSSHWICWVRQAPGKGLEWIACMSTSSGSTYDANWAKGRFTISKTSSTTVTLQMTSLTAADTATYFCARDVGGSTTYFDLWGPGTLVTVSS VL: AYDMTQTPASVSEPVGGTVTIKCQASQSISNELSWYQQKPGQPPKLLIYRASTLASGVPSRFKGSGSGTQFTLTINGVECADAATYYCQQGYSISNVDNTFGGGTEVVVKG

Result:
1: 1.8; 2: 3.1
